// GLC lookup, one value per entry
Species on record: Rattus norvegicus
measurement_description: Open TG-GATES - Regimen: Daily Repeat
Format: toxicity, organism-based, Sprague-Dawley
Parameters: regimen Daily Repeat, gender Male, age 6 weeks
measurement_conditions: in vivo, po, 0 mg/kg, […], tissue Plasma, route gavage, dose level Control, time 28 day
Field format: number, assumed mg/dL, no unit text.

• CN1C(C(=O)Nc2ccccn2)=C(O)c2sc(Cl)cc2S1(=O)=O = 198.2
• C#C[C@]1(O)CC[C@H]2[C@@H]3CCC4=Cc5oncc5C[C@]4(C)[C@H]3CC[C@@]21C = 200.4
• CCOC(=O)[C@H](CCc1ccccc1)N[C@@H](C)C(=O)N1CCC[C@H]1C(=O)O = 202.6
• C1CCC(C(CC2CCCCN2)C2CCCCC2)CC1 (stereo not given) = 204.2

Then this molecule:
For this molecule ( CC(CN1c2ccccc2Sc2ccccc21)N(C)C (stereo not given) ), measured GLC is 195.8
